Would you mind telling me the reported activity coefficient of each entry?
# experimentNotes: activity coefficient (dimensionless); of the first substance listed, at infinite dilution; xn = mol fraction of the nth substance listed
# conditions: 353.1 K; 101.33 kPa; Liquid; Chromatography; x1 = 0
Numbers only.

Record excerpt, results attached:
Cc1ccccc1 [toluene] + CCCC[n+]1ccc(C)cc1.F[B-](F)(F)F | 2.73
CC1CCCC1 [methylcyclopentane] + CCCC[N+]1(C)CCCC1.O=S(=O)([N-]S(=O)(=O)C(F)(F)F)C(F)(F)F | 8.11
CCCCCCCCCC [decane] + CCCC[N+]1(C)CCCC1.O=S(=O)([N-]S(=O)(=O)C(F)(F)F)C(F)(F)F | 40.6

For the compound Cc1ccccc1C [1,2-dimethylbenzene] + CCCC[N+]1(C)CCCC1.O=S(=O)([N-]S(=O)(=O)C(F)(F)F)C(F)(F)F , give its reported activity coefficient. 1.61

---

# experimentNotes: activity coefficient (dimensionless); of the first substance listed, at infinite dilution; xn = mol fraction of the nth substance listed
# conditions: 353.1 K; 101.33 kPa; Liquid; Chromatography; x1 = 0
metric: activity coefficient
One number for each entry.

Below are 4 compounds. Give each one its activity coefficient.
1. CC1CCCC1 [methylcyclopentane] + CCCC[n+]1ccc(C)cc1.F[B-](F)(F)F
2. Cc1ccccc1 [toluene] + CCCCn1cc[n+](C)c1.F[B-](F)(F)F
3. CCCCCC [hexane] + CCCC[n+]1ccc(C)cc1.F[B-](F)(F)F
4. CCCCCCCCCC [decane] + CCCCn1cc[n+](C)c1.F[B-](F)(F)F

1: 25.8; 2: 3.4; 3: 49; 4: 125

---

# experimentNotes: activity coefficient (dimensionless); of the first substance listed, at infinite dilution; xn = mol fraction of the nth substance listed
# conditions: 313.1 K; 101.33 kPa; Liquid; Chromatography; x1 = 0
Answer not satisfied if activity coefficient is under 40, and satisfied if it is 40 or more.

Here are 5 compounds together with their reported answers.
CCCCCC [hexane] + CCCCn1cc[n+](C)c1.F[B-](F)(F)F | satisfied
CC1CCCCC1 [methylcyclohexane] + CCCC[N+]1(C)CCCC1.O=S(=O)([N-]S(=O)(=O)C(F)(F)F)C(F)(F)F | not satisfied
CC1CCCC1 [methylcyclopentane] + CCCC[N+]1(C)CCCC1.O=S(=O)([N-]S(=O)(=O)C(F)(F)F)C(F)(F)F | not satisfied
CCCCCCCCCC [decane] + CCCC[n+]1ccc(C)cc1.F[B-](F)(F)F | satisfied
CCCCCCCCC [nonane] + CCCC[N+]1(C)CCCC1.O=S(=O)([N-]S(=O)(=O)C(F)(F)F)C(F)(F)F | not satisfied

Decide: is the reported value of activity coefficient for CCCCCCC [heptane] + CCCCn1cc[n+](C)c1.F[B-](F)(F)F equal to or greater than 40? satisfied

Reported activity coefficient reaches at least 40 for CC1CCCCC1 [methylcyclohexane] + CCCC[n+]1ccc(C)cc1.F[B-](F)(F)F ? satisfied

Check the entry CCCCCCCC [octane] + CCCCn1cc[n+](C)c1.F[B-](F)(F)F : does activity coefficient equal or exceed 40? satisfied

// inclusive: activity coefficient at least 40? input: CCCCCCC [heptane] + CCCC[n+]1ccc(C)cc1.F[B-](F)(F)F satisfied
